- System: PfAP2-EXP AP2 domain (GST-tagged)
- experimental-protocol: gcPBM binding intensity (ln(normalized median fluorescence intensity)); higher = stronger DNA binding
Over roughly 25,000 sequences, “ln(normalized median fluorescence intensity)” has its median near 8.6; the highest 2% begin near 10. The entries come from a sample that favours the highest values as a whole.
# if value of gcPBM binding intensity (ln) reaches 9, tag 1; if it stays below, tag -1

(Q) Identify whether the reported gcPBM binding intensity (ln) of the following sequence is 9 or greater: AATGATAAATAAAAAGCATGCAACAAATAAAAATAA [TGCATGCA_site453]
(A) 1

(Q) Identify whether the reported gcPBM binding intensity (ln) of the following sequence is 9 or greater: TATATATATATATGTACACACACACCGATAAATAAA [CACACA_site8041]
(A) 1

(Q) Identify whether the reported gcPBM binding intensity (ln) of the following sequence is 9 or greater: TATATATATATATACACACACACACCGATATATATA [CACACA_site8813]
(A) 1

(Q) Identify whether the reported gcPBM binding intensity (ln) of the following sequence is 9 or greater: ATATAGTAAAATTATACACACATGAATTTTCCCATG [CACACA_site1770]
(A) -1

(Q) Identify whether the reported gcPBM binding intensity (ln) of the following sequence is 9 or greater: AAATTATTATGAAATGGAAAATGCATAAATTGTTTT [XGTACX_negctrl_site206]
(A) -1

###

- Tested on: PfAP2-EXP AP2 domain (GST-tagged)
- experimental-protocol: gcPBM binding intensity (ln(normalized median fluorescence intensity)); higher = stronger DNA binding
Over roughly 25,000 sequences, “ln(normalized median fluorescence intensity)” has its median near 8.6; the highest 2% begin near 10. This excerpt belongs to a sample that is enriched for the highest values.
reported-property: gcPBM binding intensity (ln)
Reply: number alone, nothing else.

(Q) Item under review: ATATTTTGTTATGAAACACACACATATATATATATA [CACACA_site9216] . Reported gcPBM binding intensity (ln)?
(A) 10.1

(Q) Item under review: AAAAAAAAAAATATCACACACACATAAATATAAACA [CACACA_site7138] . Reported gcPBM binding intensity (ln)?
(A) 8.6

(Q) Item under review: ACAGCTCTAGGACATGCATGTTATATAGAAAAAGAG [TGCATGCA_site703] . Reported gcPBM binding intensity (ln)?
(A) 9.59

(Q) Item under review: TTTTAATGAAAACACACACACACATATATATATATA [CACACA_site5295] . Reported gcPBM binding intensity (ln)?
(A) 10.3

(Q) Item under review: TTCTGTCAATATGCTTGTACGAAATATTTCGTAATT [XGTACX_site3182] . Reported gcPBM binding intensity (ln)?
(A) 8.87

###

- Test system: PfAP2-EXP AP2 domain (GST-tagged)
- experimental-protocol: gcPBM binding intensity (ln(normalized median fluorescence intensity)); higher = stronger DNA binding
Over roughly 25,000 sequences, “ln(normalized median fluorescence intensity)” has its median near 8.6; the highest 2% begin near 10. This is one part of a sample in which the highest values are shown more often than they occur.
reported-property: gcPBM binding intensity (ln)
Reply: number alone, nothing else.

(Q) So what gcPBM binding intensity (ln) did AAAGTAAAAGAAAGCACACACACATGGATTTATGTA [CACACA_site5997] get with PfAP2-EXP AP2 domain (GST-tagged)?
(A) 8.53

(Q) So what gcPBM binding intensity (ln) did TATACATATACATATACACACACACCCATAAATAAA [CACACA_site8372] get with PfAP2-EXP AP2 domain (GST-tagged)?
(A) 9.05

(Q) So what gcPBM binding intensity (ln) did CACCCACTAATAAACACACACATATATATATATATA [CACACA_site389] get with PfAP2-EXP AP2 domain (GST-tagged)?
(A) 10.2

(Q) So what gcPBM binding intensity (ln) did ACCGGTGGAACGTTTTGTACATATATAATAATATAT [XGTACX_site2143] get with PfAP2-EXP AP2 domain (GST-tagged)?
(A) 8.62

(Q) So what gcPBM binding intensity (ln) did AATACGTTTATATATTGTACGTTATATATATATATA [XGTACX_site7452] get with PfAP2-EXP AP2 domain (GST-tagged)?
(A) 9.91
